# reported IC50; entries follow
Target: FLAP (human ALOX5AP expressed in COS-7 cell membranes) (Homo sapiens (Human), UniProt P20292)
Sequence (P20292 whole entry): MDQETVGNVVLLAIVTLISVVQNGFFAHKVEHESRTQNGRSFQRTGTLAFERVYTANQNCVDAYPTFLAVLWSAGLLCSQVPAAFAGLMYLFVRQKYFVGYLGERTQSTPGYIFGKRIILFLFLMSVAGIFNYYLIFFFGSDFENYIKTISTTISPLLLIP
Note: unit nM is implicit; provide only the numeric part.

> print(dat)
                                   compound  unit.descriptor  number
1  Cc1cc(-c2ccc(C(=O)[C@@H]3CCCC[C@H]3C(=O)Nc3cnn4c3OCC4)cc2)[nH]n1               nM      82
2  Cc1cc(-c2ccc(C(=O)C3CCCCC3C(=O)Nc3cn[nH]c3C(N)=O)c(F)c2)[nH]n1 (single isomer, unassigned)               nM      20
3  Cc1cc(-c2ccc(C(=O)[C@@H]3CCCC[C@H]3C(=O)Nc3cn(C)nc3S(N)(=O)=O)cc2)[nH]n1               nM     270

Read the next record carefully.
The compound identified as Cn1ncc(NC(=O)C2CCCCC2C(=O)c2ccc(-c3ccn[nH]3)cc2Cl)c1C(N)=O (racemic) registered its IC50 at 190

====

Target: FLAP (human ALOX5AP expressed in COS-7 cell membranes) (Homo sapiens (Human), UniProt P20292)
measure: pIC50
Please express pIC50 as -log10 of the molar concentration.

> print(dat)
                                   molecule  measure  number
1  Cn1cc(NC(=O)C2CCCCC2C(=O)c2ccc(-c3cc[nH]n3)cc2)c(C(N)=O)n1 (single isomer, unassigned)    pIC50    7.14

# next molecule below
According to the records, this molecule O=C(Nc1cn[nH]c1C(F)F)[C@@H]1CCCC[C@H]1C(=O)c1ccc(-c2cc[nH]n2)cc1 displays pIC50 of 7.92

====

Target: FLAP (human ALOX5AP expressed in COS-7 cell membranes) (Homo sapiens (Human))
measure: pIC50
Answer as the number alone; pIC50 is minus log10 of concentration in mol/L.

> print(dat)
                                   molecule                             tested.system  measure  number
1  Cn1cc(NC(=O)C2CCCCC2C(=O)c2ccc(-c3ccn[nH]3)cc2F)c(C(N)=O)n1 (single isomer, unassigned)  FLAP (human ALOX5AP expressed in COS-7 cell membranes) (Homo sapiens (Human))    pIC50    7.08

The measured pIC50 that Cc1onc(NC(=O)C2CCCCC2C(=O)c2ccc(-c3ccn[nH]3)cc2F)c1C(N)=O (single isomer, unassigned) showed for FLAP (human ALOX5AP expressed in COS-7 cell membranes) (Homo sapiens (Human)) is 6.80

Tested on FLAP (human ALOX5AP expressed in COS-7 cell membranes) (Homo sapiens (Human)): Cc1cc(NC(=O)C2CCCCC2C(=O)c2ccc(-c3ccn[nH]3)cc2)on1 (racemic) . Observed pIC50: 7.34

Form field pIC50 for item Cc1nn2c(c1NC(=O)[C@@H]1CCCC[C@H]1C(=O)c1ccc(-c3cc[nH]n3)cc1)C(=O)NCC2 on FLAP (human ALOX5AP expressed in COS-7 cell membranes) (Homo sapiens (Human)): 8.32

Measured pIC50 for this entry Cc1nsc(NC(=O)C2CCCCC2C(=O)c2ccc(-c3ccn[nH]3)cc2)c1C#N (racemic) on FLAP (human ALOX5AP expressed in COS-7 cell membranes) (Homo sapiens (Human)): 7.36

Field pIC50 (FLAP (human ALOX5AP expressed in COS-7 cell membranes) (Homo sapiens (Human))), entry Cc1cc(-c2ccc(C(=O)C3CCCCC3C(=O)Nc3cnn4c3C(=O)NCC4)c(F)c2)[nH]n1 (single isomer, unassigned) : 8.05

Test item Cn1cc(NC(=O)[C@@H]2CCCC[C@H]2C(=O)c2ccc(-c3ccn[nH]3)cc2)c(S(N)(=O)=O)n1 ; FLAP (human ALOX5AP expressed in COS-7 cell membranes) (Homo sapiens (Human)); reported pIC50 was 6.54

Every entry's value here was drawn from patent US10183947B2.
